Data provenance: the supplement of paper PMC12636033

# Tested on: muMax20 (Max(13-93) K31hArg/K57hArg, M65Nle)
# TEST PROTOCOL: PBM 8-mer E-score (E-score (rank enrichment, -0.5 to 0.5)); higher = stronger preferential binding
Over roughly 33,000 sequences, “E-score (rank enrichment, -0.5 to 0.5)” has its median near -0.0068; the highest 2% begin near 0.24. Shown is part of a subset that was picked to be rich in the highest values.
Reported PBM 8-mer E-score by item:

{"SEQUENCE RECORD": "CGCATTAA", "PBM 8-mer E-score": -0.00237}
{"SEQUENCE RECORD": "TAAGGGAA", "PBM 8-mer E-score": 0.0705}
{"SEQUENCE RECORD": "ATAATACA", "PBM 8-mer E-score": 0.281}
{"SEQUENCE RECORD": "ATAATACC", "PBM 8-mer E-score": 0.261}
{"SEQUENCE RECORD": "GATTGCCA", "PBM 8-mer E-score": -0.0436}
{"SEQUENCE RECORD": "ACACGTAG", "PBM 8-mer E-score": 0.0342}
{"SEQUENCE RECORD": "CTAATACC", "PBM 8-mer E-score": 0.0669}
{"SEQUENCE RECORD": "TAGGTTCA", "PBM 8-mer E-score": -0.12}
{"SEQUENCE RECORD": "TCACGTAA", "PBM 8-mer E-score": 0.0827}
{"SEQUENCE RECORD": "CTCAGTGC", "PBM 8-mer E-score": -0.224}
{"SEQUENCE RECORD": "CAGGCAGA", "PBM 8-mer E-score": -0.144}
{"SEQUENCE RECORD": "CACTGACC", "PBM 8-mer E-score": -0.132}
{"SEQUENCE RECORD": "ATACGTAA", "PBM 8-mer E-score": 0.112}
{"SEQUENCE RECORD": "CTACCTGC", "PBM 8-mer E-score": -0.0986}
{"SEQUENCE RECORD": "ACAATACT", "PBM 8-mer E-score": 0.174}
{"SEQUENCE RECORD": "AAACGTGT", "PBM 8-mer E-score": 0.169}
{"SEQUENCE RECORD": "CCCATTAA", "PBM 8-mer E-score": -0.0202}
{"SEQUENCE RECORD": "ATGATTGA", "PBM 8-mer E-score": 0.127}
{"SEQUENCE RECORD": "TCAATACA", "PBM 8-mer E-score": 0.189}
{"SEQUENCE RECORD": "GGAGAGCC", "PBM 8-mer E-score": -0.211}
{"SEQUENCE RECORD": "TGCATTAA", "PBM 8-mer E-score": 0.277}
{"SEQUENCE RECORD": "TCACGTGA", "PBM 8-mer E-score": 0.442}
{"SEQUENCE RECORD": "AAACGAGA", "PBM 8-mer E-score": 0.18}
{"SEQUENCE RECORD": "ATACGTAT", "PBM 8-mer E-score": 0.308}
{"SEQUENCE RECORD": "CGATATTC", "PBM 8-mer E-score": -0.032}
{"SEQUENCE RECORD": "AAGTCCCA", "PBM 8-mer E-score": 0.0496}
{"SEQUENCE RECORD": "CTCGGGTC", "PBM 8-mer E-score": -0.292}
{"SEQUENCE RECORD": "AGCATTAC", "PBM 8-mer E-score": -0.0675}
{"SEQUENCE RECORD": "CTTGGAGC", "PBM 8-mer E-score": -0.103}
{"SEQUENCE RECORD": "CGATATAG", "PBM 8-mer E-score": 0.044}
{"SEQUENCE RECORD": "AAAACCCC", "PBM 8-mer E-score": 0.126}
{"SEQUENCE RECORD": "GTATGGGA", "PBM 8-mer E-score": -0.111}
{"SEQUENCE RECORD": "CTAAATTA", "PBM 8-mer E-score": 0.0189}
{"SEQUENCE RECORD": "ATGACTGG", "PBM 8-mer E-score": -0.0322}
{"SEQUENCE RECORD": "ATAATACG", "PBM 8-mer E-score": 0.19}
{"SEQUENCE RECORD": "GTAATACA", "PBM 8-mer E-score": 0.182}
{"SEQUENCE RECORD": "AAACGTGG", "PBM 8-mer E-score": 0.201}
{"SEQUENCE RECORD": "ATCCCTGG", "PBM 8-mer E-score": -0.185}
{"SEQUENCE RECORD": "ACACGTAT", "PBM 8-mer E-score": 0.218}
{"SEQUENCE RECORD": "CGCGCTAA", "PBM 8-mer E-score": -0.0154}
{"SEQUENCE RECORD": "TCCATTAA", "PBM 8-mer E-score": "-2.5e-05"}
{"SEQUENCE RECORD": "ATAAATTG", "PBM 8-mer E-score": 0.157}
{"SEQUENCE RECORD": "AGCATTAG", "PBM 8-mer E-score": 0.142}
{"SEQUENCE RECORD": "GGATATTA", "PBM 8-mer E-score": 0.125}
{"SEQUENCE RECORD": "AGCATTAT", "PBM 8-mer E-score": 0.262}
{"SEQUENCE RECORD": "ACAATACC", "PBM 8-mer E-score": 0.237}
